Tested on: Eotaxin-3 (CCL26) release
Assay: Human Whole Blood Eotaxin-3 Assay (IL-4 stimulated)
Type: cell-based
Settings: Homo sapiens; geometric mean across assay runs and compound batches; EC50 provided for test compounds with >80% Emax
pEC50: −log10 of the molar value.
endpoint-name: pEC50

Recorded pEC50, per entry:
compound	pEC50
CNc1ccn(-c2ccnc3c2cc([C@H](C)N2CC=C(c4c(F)cc(C(=O)N5CCn6nc(CN7CCC(c8ccc(NC9CCC(=O)NC9=O)cc8F)CC7)cc6C5)cc4F)CC2)n3C)c(=O)c1 (stereo partly drawn) [Example 2g108]	9.15
CNc1ccn(-c2ccnc3c2cc(CN2CCC(c4c(F)cc(C(=O)N5CCC(CN6CCN(c7ccc(N[C@@H]8CCC(=O)NC8=O)cc7F)CC6)CC5)cc4F)CC2)n3C)c(=O)c1 (single isomer, unassigned) [Example 2g57]	7.30
CNc1cc(=O)n(-c2ccnc3c2cc([C@H](C)N2CC=C(c4c(C)cc(C(=O)N5CCn6nc(CN7CCC(c8ccc(N[C@@H]9CCC(=O)NC9=O)cc8F)CC7)cc6C5)cc4F)CC2)n3C)cc1F (single isomer, unassigned) [Example 2g5]	8.57
C[C@@H]1CN(c2ccc(NC3CCC(=O)NC3=O)cc2F)CCN1CC1CCN(C(=O)c2ccc(C3CCN([C@@H](C)c4cc5c(-n6ccc7c(c6=O)CCN7)ccnc5n4C)CC3)cc2)CC1 (stereo partly drawn) [Example 2f14]	7.73
CNc1ccn(-c2ccnc3c2cc([C@H](C)N2CC=C(c4c(C)cc(C(=O)N5CCC(CN6CCN(c7ccc(N[C@H]8CCC(=O)NC8=O)c(OC)c7)CC6)CC5)cc4F)CC2)n3C)c(=O)c1 (single isomer, unassigned) [Example 2g126]	7.67

[1] CNc1ccn(-c2ccnc3c2cc([C@H](C)N2CC=C(c4c(C)cc(C(=O)N5CCC(CN6CCN(c7cccc(C(=O)NC8CCC(=O)NC8=O)c7)CC6)CC5)cc4F)CC2)n3C)c(=O)c1 (stereo partly drawn) [Example 2g21]
[2] CNc1ccn(-c2ccnc3c2cc([C@H](C)N2CC=C(c4c(F)cc(C(=O)N5CCC(CN6CCN(c7ccc(N[C@@H]8CCC(=O)NC8=O)cc7F)CC6)CC5)cc4F)CC2)n3C)c(=O)c1 (single isomer, unassigned) [Example 2g105]
stdin: Hi there, can you help? I need to know whether 1 or 2 has lower measured pEC50. State your choice using its label.
stdout: 1

[I] CNc1ccn(-c2ccnc3c2cc([C@H](C)N2CCC(c4c(F)cc(C(=O)N5CCn6nc(CN7CCC(c8ccc(NC9CCC(=O)NC9=O)cc8F)CC7)cc6C5)cc4F)CC2)n3C)c(=O)c1 (stereo partly drawn) [Example 2g109]
[II] Cc1cc(C(=O)N2CCC(CN3CCN(c4ccc(NC5CCC(=O)NC5=O)cc4F)CC3)CC2)cc(F)c1C1=CCN(Cc2cc3c(-n4ccc5c(c4=O)CCN5)ccnc3n2C)CC1 (stereo not drawn) [Example 2g59]
stdin: Pick one: I or II . Which has the bigger pEC50 number? Please indicate the selected item by its label.
stdout: I
